Test system: L1210 leukemia ip in BDF1 mice, survival T/C
Assay: NCI In Vivo Anticancer Drug Screen. Data for tumor model L1210 Leukemia (intraperitoneal) in B6D2F1 (BDF1) mice
Details: endpoint: mean survival time; dose: 100.0 mg/kg/injection; schedule: Q04DX002 (ip); vehicle: saline with Tween-80; higher = longer survival
Inconclusive results and toxic doses are left out.
measured_metric: T/C

In [3]: df
Out[3]:
                                   compound       test_result
0           CCc1cccc(CC)c1NC(=O)/C=C/C(=O)O   93 % of control
1          CCCCOP(=O)(Cc1ccc(Cl)cc1Cl)OCCCC  109 % of control
2   COC(=O)C[CH2][Sn]([Br])([Br])[c]1ccccc1   95 % of control
3  Cc1c(C)c(C)c([N+](=O)[O-])c([N+](=O)[O-])c1C   97 % of control
4  CCOC(=O)/C(C#N)=C\C1(C)CCC(C)=CO1 (stereo unspecified)   92 % of control

Okay, next one:
Request: Entry Cc1ccc(S(=O)(=O)N/N=C/C=C/c2ccccc2)cc1 : reported T/C = ?
Response: 103 % of control

---

Tested on: L1210 leukemia ip in BDF1 mice, survival T/C
Experiment: NCI In Vivo Anticancer Drug Screen. Data for tumor model L1210 Leukemia (intraperitoneal) in B6D2F1 (BDF1) mice
Settings: endpoint: mean survival time; dose: 100.0 mg/kg/injection; schedule: Q01DX001 (ip); vehicle: carboxymethylcellulose (CMC)
Inconclusive results and toxic doses are left out. No stated cut-off is given here; in the data, active means T/C of 150% or more; inactive means T/C below 125%.
Respond with a class label; see Yes (active), No (inactive)

Some solved entries appear below for comparison.
                                   molecule                           measured_target  class
0  COC1(OC)C2(Cl)C=C(c3ccccc3)C1(Cl)C(Cl)=C2Cl (stereo not drawn)  L1210 leukemia ip in BDF1 mice, survival T/C     No
1                           Nc1ccccc1C(=O)O  L1210 leukemia ip in BDF1 mice, survival T/C     No
2  Nc1ccc2c(c1)C(O)c1cc(Br)ccc1-2 (stereo not drawn)  L1210 leukemia ip in BDF1 mice, survival T/C     No
3          O=NN(CCCl)C(=O)Nc1ccc(Cl)c(Cl)c1  L1210 leukemia ip in BDF1 mice, survival T/C     No
4  OCC1OC(n2cc(Br)c3c(Cl)ncnc32)C(O)C1O (stereo not drawn)  L1210 leukemia ip in BDF1 mice, survival T/C     No

Request: Test call, this molecule: c1nc(N2CC2)c2cnn(C3CCCCO3)c2n1 (stereo not drawn)
Response: No

Request: Test call, this molecule: CC1=C(C(=O)O)C(c2ccccc2)CC(=O)N1 (stereo not drawn)
Response: No

Request: Test call, this molecule: COc1ccc(OC)c2c(=O)cc[nH]c12
Response: No

Request: Test call, this molecule: COC(=O)C1=C(O)CCCC=C1C(=O)O
Response: No

Request: Test call, this molecule: Cc1cn(C2OC(CO)C(O)C2O)c(=O)[nH]c1=O (stereo not drawn)
Response: No

---

Listing of recorded T/C by entry.
Test system: L1210 leukemia ip in BDF1 mice, survival T/C
Experiment: NCI In Vivo Anticancer Drug Screen. Data for tumor model L1210 Leukemia (intraperitoneal) in B6D2F1 (BDF1) mice
Conditions: endpoint: mean survival time; dose: 100.0 mg/kg/injection; schedule: Q01DX009 (ip); vehicle: saline sonified; higher = longer survival
Inconclusive results and toxic doses are left out.

Some solved entries appear below for comparison.
                                   compound                           measured_target  measured_metric       test_result
0  CC1(O)c2ccccc2-c2nc3ccccc3nc21 (centres undefined)  L1210 leukemia ip in BDF1 mice, survival T/C              T/C  102 % of control
1  CS(=O)(=O)OC[C@@H](O)[C@@H](O)COS(C)(=O)=O  L1210 leukemia ip in BDF1 mice, survival T/C              T/C  101 % of control
2         COc1cc2ccc3c(c2cc1OC)C=[N+](C)CC3  L1210 leukemia ip in BDF1 mice, survival T/C              T/C  120 % of control

Okay, next one:
Request: # get_value(readout= T/C, system= L1210 leukemia ip in BDF1 mice, survival T/C) for COc1ccc2c(c1C)CCC1(C(=O)O)CC(C)C(O)CC21 (centres undefined)
Response: 98 % of control
